Entries and their measured log10(EC50) follow.
test-target: human Somatostatin 4 receptor (SSTR4) (Homo sapiens (Human), UniProt P31391)
experimental-details: cAMP assay with human Somatostatin 4 receptor
condition-details: hSSTR4 expressing H4 cells, inhibition of Forskolin-stimulated cAMP; read-out: SSTR4 agonism EC50
Plainly stated, the numbers are log10 of EC50 given in nM.

smiles-text	log10(EC50)
CC(C)(NC(=O)c1cccc2c1OCCNC2)c1ncc2c(OC(F)(F)F)cccn12	1.48

Query compound follows.
Please report log10(EC50) with human Somatostatin 4 receptor (SSTR4) (Homo sapiens (Human), UniProt P31391) for item CC(C)(NC(=O)c1ccnc2c1OCCNC2)c1noc2c(F)cccc12 .
2.58

====

Entries and their measured Ki follow.
test-target: human SSTR4 (Homo sapiens (Human))
Sequence (P31391 whole entry): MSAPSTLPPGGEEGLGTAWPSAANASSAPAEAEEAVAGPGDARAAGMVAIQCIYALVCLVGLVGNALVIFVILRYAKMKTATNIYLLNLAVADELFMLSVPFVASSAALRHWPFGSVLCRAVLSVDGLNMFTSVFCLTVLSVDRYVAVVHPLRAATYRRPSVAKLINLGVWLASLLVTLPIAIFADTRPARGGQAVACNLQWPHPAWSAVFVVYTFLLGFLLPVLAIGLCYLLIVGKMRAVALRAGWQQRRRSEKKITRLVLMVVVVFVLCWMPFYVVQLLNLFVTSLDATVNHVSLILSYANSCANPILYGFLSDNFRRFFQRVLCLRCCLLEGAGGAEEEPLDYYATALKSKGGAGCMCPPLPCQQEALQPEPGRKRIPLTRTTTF
Write it as a number; the unit nM goes unstated.

smiles-text	unit-of-measurement	Ki
Cc1cccn2c(C(C)(C)NC(=O)c3cccc4c3OCCNC4)ncc12	nM	53.2
Cc1cccc2c(C(C)(C)NC(=O)c3cncc4c3OCCNC4)nn(C)c12	nM	532
CC(C)(NC(=O)c1cccc2c1OCCNC2)c1ccnc2ccccc12	nM	104

Look up and report measured Ki for this entry: Cn1nc(C(C)(C)NC(=O)c2cccc3c2OCCNC3)c2cccc(F)c21
29.1

====

experimental-details: Metabolic stability in human liver microsomes
Type: in vitro ADME
condition-details: pH 7.6; pooled human liver microsomes, 37° C., 1 μM test compound, NADPH; read-out: Half-life t1/2
result-type: half-life at 1 μM

smiles-text	half-life at 1 μM
Cc1cccn2c(C(C)(C)NC(=O)c3nccc4c3OCCNC4)ncc12	> 2.17 h

Look up and report measured half-life at 1 μM for this entry: Cc1cccn2c(C(C)(C)NC(=O)c3cccc4c3OCCNC4)cnc12
> 2.17 h

Look up and report measured half-life at 1 μM for this entry: Cc1cccc2c(C(C)(C)NC(=O)c3cccc4c3OCCNC4)noc12
0.9 h

====

test-target: human Somatostatin 4 receptor (SSTR4) (Homo sapiens (Human), UniProt P31391)
experimental-details: cAMP assay with human Somatostatin 4 receptor
Assay type: cell-based
condition-details: hSSTR4 expressing H4 cells, inhibition of Forskolin-stimulated cAMP; read-out: SSTR4 agonism EC50
result-type: log10 EC50 (log10 of the value in µM)
Plainly stated, the numbers are log10 of EC50 given in µM.

Example results:
compound	test-target	result-type	result-value
CC(C)(NC(=O)c1cccc2c1OCCNC2)c1cccc2cccnc12	human Somatostatin 4 receptor (SSTR4) (Homo sapiens (Human), UniProt P31391)	log10 EC50	-1.38
Cc1cccc2c(C(C)(C)NC(=O)c3cccc4c3OCCNC4)ncnc12	human Somatostatin 4 receptor (SSTR4) (Homo sapiens (Human), UniProt P31391)	log10 EC50	-2.04

Look up and report measured log10 EC50 for this entry: Cc1cc2ccccc2c(C(C)(C)NC(=O)c2cccc3c2OCCNC3)n1
-2.38

Look up and report measured log10 EC50 for this entry: C[C@H](NC(=O)c1cccc2c1OCCNC2)c1cccc2ccccc12.Cl
-2.55

Look up and report measured log10 EC50 for this entry: O=C(NC1(c2nc3ccc(Cl)cc3[nH]2)CCOC1)c1cccc2c1OCCNC2 (stereo not drawn)
-0.12

Look up and report measured log10 EC50 for this entry: CC(C)(NC(=O)c1cccc2c1OCCNC2)c1ccc(Cl)c(Cl)c1.Cl
-1.65

Look up and report measured log10 EC50 for this entry: CC(C)(NC(=O)c1cncc2c1OCCNC2)c1noc2c(F)cccc12
0.20

Look up and report measured log10 EC50 for this entry: Cc1cccn2c(C(C)(C)NC(=O)c3nccc4c3OCCNC4)nc(C3CC3)c12
-0.84

Look up and report measured log10 EC50 for this entry: Cc1cccn2c(C(C)(C)NC(=O)c3cccc4c3OCCNC4)ccc12
-2.54

====

test-target: human Somatostatin 4 receptor (SSTR4) (Homo sapiens (Human))
experimental-details: cAMP assay with human Somatostatin 4 receptor
Type: cell-based
condition-details: hSSTR4 expressing H4 cells, inhibition of Forskolin-stimulated cAMP; read-out: SSTR4 agonism EC50
result-type: log10(EC50) (log10 of the value in nM)
Plainly stated, the numbers are log10 of EC50 given in nM.

molecule	log10(EC50)
Cc1cccn2c(C3(NC(=O)c4cccc5c4OCCNC5)CCOCC3)ncc12 [Example 58]	3.39
Cc1cccn2c(C(C)(C)NC(=O)c3nccc4c3OCCNC4)ccc12 [Example 77]	1.35
COc1cccn2c(C(C)(C)NC(=O)c3cccc4c3OCCNC4)ncc12 [Example 51]	0.63

Look up and report measured log10(EC50) for this entry: Cc1cccc2c(C(C)(C)NC(=O)c3cccc4c3OCCNC4)nn(C)c12 [Example 40]
0.34

Look up and report measured log10(EC50) for this entry: Cc1nc(C(C)(C)NC(=O)c2cccc3c2OCCNC3)c2ccccc2n1 [Example 64]
1.35

Look up and report measured log10(EC50) for this entry: CC(C)(COc1cnccc1C(F)(F)F)NC(=O)c1cccc2c1OCCNC2 [Example 14]
2.12

Look up and report measured log10(EC50) for this entry: CC(C)(NC(=O)c1cccc2c1OCCNC2)c1n[nH]c2c(F)cccc12 [Example 43]
0.34

Look up and report measured log10(EC50) for this entry: CC(C)(NC(=O)c1cccc2c1OCCNC2)c1ccc(F)cc1 [Example 16]
1.52

Look up and report measured log10(EC50) for this entry: CC(C)(NC(=O)c1cccc2c1OCCNC2)c1ccc(Cl)cc1.Cl [Example 17]
0.91

====

test-target: human Somatostatin 4 receptor (SSTR4) (Homo sapiens (Human), UniProt P31391)
experimental-details: cAMP assay with human Somatostatin 4 receptor
Assay type: cell-based
condition-details: hSSTR4 expressing H4 cells, inhibition of Forskolin-stimulated cAMP; read-out: SSTR4 agonism EC50
Procedure: Method description for cAMP assay with human Somatostatin 4 receptor. The activation of the SSTR4 receptor (Gi coupled) causes an inhibition of intracellular cAMP after stimulation with Forskolin, which can be quantifiable by use of a suitable assay Kit and an adequate plate reader. […] For the assay 5 μl of a cell suspension (approximately 5000 cells/well)—incl. […] The plates are read in a suitable plate reader. […]
result-type: log10(EC50) (log10 of the value in nM)
Plainly stated, the numbers are log10 of EC50 given in nM.

Look up and report measured log10(EC50) for this entry: CC(C)(NC(=O)c1cccc2c1OCCNC2)c1nc(C(F)(F)F)c2c(F)cccn12
1.51

Look up and report measured log10(EC50) for this entry: Cc1cccn2c(C3(NC(=O)c4cccc5c4OCCNC5)CCC3)ncc12
1.18

Look up and report measured log10(EC50) for this entry: Cc1cccn2c(C(C)(C)NC(=O)c3cccc4c3OCCNC4)ncc12
0.30

Look up and report measured log10(EC50) for this entry: Cc1cccn2c(C(C)(C)NC(=O)c3cccc4c3OCCNC4)nc(C3CC3)c12
0.60

Look up and report measured log10(EC50) for this entry: Cn1nc(C(C)(C)NC(=O)c2cccc3c2OCCNC3)c2ccc(F)cc21
-0.05

====

test-target: UniProtKB P35346
Sequence (P35346 whole entry): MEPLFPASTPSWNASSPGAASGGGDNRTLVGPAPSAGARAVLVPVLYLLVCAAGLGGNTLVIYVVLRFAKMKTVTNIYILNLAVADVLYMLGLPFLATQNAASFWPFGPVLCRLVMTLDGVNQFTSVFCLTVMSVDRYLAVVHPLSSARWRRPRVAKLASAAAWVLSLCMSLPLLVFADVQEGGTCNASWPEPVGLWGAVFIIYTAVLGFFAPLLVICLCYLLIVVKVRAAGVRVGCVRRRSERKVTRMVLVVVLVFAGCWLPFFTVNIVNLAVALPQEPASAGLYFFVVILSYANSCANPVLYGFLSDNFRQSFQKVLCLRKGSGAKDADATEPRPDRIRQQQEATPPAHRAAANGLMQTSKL
result-type: Ki (µM)
Write it as a number; the unit µM goes unstated.

smiles-text	test-target	result-type	result-value
Cc1cccn2c(C(C)(C)NC(=O)c3cccc4c3OCCNC4)ncc12	UniProtKB P35346	Ki	9.86
Cc1cccc2c(C(C)(C)NC(=O)c3cncc4c3OCCNC4)nn(C)c12	UniProtKB P35346	Ki	9.75
Cn1nc(C(C)(C)NC(=O)c2nccc3c2OCCNC3)c2ccccc21	UniProtKB P35346	Ki	9.75
Cc1cccc2c(C(C)(C)NC(=O)c3cccc4c3OCCNC4)n[nH]c12	UniProtKB P35346	Ki	9.75
CC(C)(NC(=O)c1cccc2c1OCCNC2)c1ccnc2ccccc12	UniProtKB P35346	Ki	9.86

Please report Ki with UniProtKB P35346 for item Cn1nc(C(C)(C)NC(=O)c2cccc3c2OCCNC3)c2ccccc21 .
9.86

Please report Ki with UniProtKB P35346 for item Cn1nc(C(C)(C)NC(=O)c2ccnc3c2OCCNC3)c2ccccc21 .
9.75

====

Entries and their measured half-life at 1 μM follow.
experimental-details: Metabolic stability in human liver microsomes
Format: in vitro ADME
condition-details: pH 7.6; pooled human liver microsomes, 37° C., 1 μM test compound, NADPH; read-out: Half-life t1/2
Write it as a number; the unit h goes unstated.

Example results:
compound	half-life at 1 μM (h)
Cc1cccn2c(C(C)(C)NC(=O)c3cccc4c3OCCNC4)nc(C)c12.Cl [Example 53]	1.2
CC(C)(NC(=O)c1cccc2c1OCCNC2)c1cccc2ccccc12 [Example 7]	0.533
C[C@H](NC(=O)c1cccc2c1OCCNC2)c1cccc2ccccc12.Cl [Example 9]	0.317
Cc1cccc2c(C(C)(C)NC(=O)c3cccc4c3OCCNC4)nn(C)c12 [Example 40]	0.517
CC(C)(NC(=O)c1cccc2c1OCCNC2)c1n[nH]c2c(F)cccc12 [Example 43]	1.45

Look up and report measured half-life at 1 μM for this entry: CC(C)(NC(=O)c1cccc2c1OCCNC2)c1ccc(Cl)cc1.Cl [Example 17]
0.233

Look up and report measured half-life at 1 μM for this entry: Cn1nc(C(C)(C)NC(=O)c2cccc3c2OCCNC3)c2ccc(F)cc21 [Example 23]
1.12

Look up and report measured half-life at 1 μM for this entry: Cc1cccc2c(C(C)(C)NC(=O)c3cccc4c3OCCNC4)cnn12 [Example 24]
1.83

Look up and report measured half-life at 1 μM for this entry: Cn1nc(C(C)(C)NC(=O)c2cccc3c2OCCNC3)c2ccccc21 [Example 18]
1.22

Look up and report measured half-life at 1 μM for this entry: Cn1nc(C(C)(C)NC(=O)c2cccc3c2OCCNC3)c2c(F)cccc21 [Example 22]
0.7

Look up and report measured half-life at 1 μM for this entry: CC(C)(NC(=O)c1cccc2c1OCCNC2)c1ccc(Cl)c(Cl)c1.Cl [Example 8]
0.0733

Look up and report measured half-life at 1 μM for this entry: Cc1cc2ccccc2c(C(C)(C)NC(=O)c2cccc3c2OCCNC3)n1 [Example 28]
0.5

Look up and report measured half-life at 1 μM for this entry: Cc1cccc2c(C(C)(C)NC(=O)c3cccc4c3OCCNC4)n[nH]c12 [Example 33]
1.65

Look up and report measured half-life at 1 μM for this entry: Cc1cccn2c(C(C)(C)NC(=O)c3cccc4c3OCCNC4)nc(C3CC3)c12 [Example 62]
0.533

Look up and report measured half-life at 1 μM for this entry: CC(C)(NC(=O)c1cccc2c1OCCNC2)c1ncc2c(Cl)cccn12 [Example 48]
1.42

Look up and report measured half-life at 1 μM for this entry: Cn1nc(C(C)(C)NC(=O)c2cccc3c2OCCNC3)c2cccc(F)c21 [Example 39]
0.85

Look up and report measured half-life at 1 μM for this entry: CC(C)(NC(=O)c1cccc2c1OCCNC2)c1nc(C2CC2)c2c(F)cccn12 [Example 61]
0.75

Look up and report measured half-life at 1 μM for this entry: Cc1cccc2c(C(C)(C)NC(=O)c3cccc4c3OCCNC4)ncnc12 [Example 45]
1.83

Look up and report measured half-life at 1 μM for this entry: Cc1cc2ccccc2c(C(C)(C)NC(=O)c2nccc3c2OCCNC3)n1 [Example 29]
0.45

Look up and report measured half-life at 1 μM for this entry: Cc1cccn2c(C3(NC(=O)c4cccc5c4OCCNC5)CC3)ncc12 [Example 49]
1.55

Look up and report measured half-life at 1 μM for this entry: Cc1cccn2c(C(C)(C)NC(=O)c3cccc4c3OCCNC4)ccc12 [Example 71]
0.183

Look up and report measured half-life at 1 μM for this entry: Cc1nc(C(C)(C)NC(=O)c2cccc3c2OCCNC3)n2cccc(F)c12 [Example 50]
1.38

Look up and report measured half-life at 1 μM for this entry: CC(C)(NC(=O)c1cccc2c1OCCNC2)c1noc2c(Cl)cccc12 [Example 38]
0.583
